test system: LOU-NH91; test: relative viability (nuclei count vs DMSO), 5 days (fraction); higher = more cells survive; settings: first compound 0.002 µM
Please go through the items and note down their relative viability.
Write the value as a bare number.

Q: Form entry - test system: LOU-NH91; read-out: relative viability; compound: CC(=O)O[C@@]12CO[C@@H]1C[C@H](O)[C@@]1(C)C(=O)[C@H](O)C3=C(C)[C@@H](OC(=O)[C@H](O)[C@@H](NC(=O)OC(C)(C)C)c4ccccc4)C[C@@](O)([C@@H](OC(=O)c4ccccc4)[C@H]21)C3(C)C [Docetaxel] + CC(C)C[C@H](NC(=O)[C@H](Cc1ccccc1)NC(=O)c1cnccn1)B(O)O [Bortezomib] (partner 0.002 µM)
A: 0.4

Q: Record lookup: for LOU-NH91, what relative viability belongs to CC(=O)O[C@@]12CO[C@@H]1C[C@H](O)[C@@]1(C)C(=O)[C@H](O)C3=C(C)[C@@H](OC(=O)[C@H](O)[C@@H](NC(=O)OC(C)(C)C)c4ccccc4)C[C@@](O)([C@@H](OC(=O)c4ccccc4)[C@H]21)C3(C)C [Docetaxel] + CC(=O)Nc1cccc(-n2c(=O)n(C3CC3)c(=O)c3c(Nc4ccc(I)cc4F)n(C)c(=O)c(C)c32)c1 [Trametinib] (partner 0.02 µM) ?
A: 0.607

Q: API: value(readout= relative viability, system= LOU-NH91, query= CC(=O)O[C@@]12CO[C@@H]1C[C@H](O)[C@@]1(C)C(=O)[C@H](O)C3=C(C)[C@@H](OC(=O)[C@H](O)[C@@H](NC(=O)OC(C)(C)C)c4ccccc4)C[C@@](O)([C@@H](OC(=O)c4ccccc4)[C@H]21)C3(C)C [Docetaxel] + O=C(c1cc(Cc2n[nH]c(=O)c3ccccc23)ccc1F)N1CCN(C(=O)C2CC2)CC1 [Olaparib] (partner 8 µM) )
A: 0.567
